These measurements were taken from PubChem BioAssay AID1946.

molecular target: Potassium voltage-gated channel subfamily KQT member 2 (Rattus norvegicus) (UniProt O88943); test: KCNQ2 blockade in CHO cells – cell-based, FluxOR thallium flux, counter-screen for hERG block protector project, confirmation (AID 1946); details: FluxOR thallium flux fluorescence, at 10 µM, stronger effect = lower value, zero marks the 3-SD hit cutoff
Sequence (O88943 whole entry, looked up): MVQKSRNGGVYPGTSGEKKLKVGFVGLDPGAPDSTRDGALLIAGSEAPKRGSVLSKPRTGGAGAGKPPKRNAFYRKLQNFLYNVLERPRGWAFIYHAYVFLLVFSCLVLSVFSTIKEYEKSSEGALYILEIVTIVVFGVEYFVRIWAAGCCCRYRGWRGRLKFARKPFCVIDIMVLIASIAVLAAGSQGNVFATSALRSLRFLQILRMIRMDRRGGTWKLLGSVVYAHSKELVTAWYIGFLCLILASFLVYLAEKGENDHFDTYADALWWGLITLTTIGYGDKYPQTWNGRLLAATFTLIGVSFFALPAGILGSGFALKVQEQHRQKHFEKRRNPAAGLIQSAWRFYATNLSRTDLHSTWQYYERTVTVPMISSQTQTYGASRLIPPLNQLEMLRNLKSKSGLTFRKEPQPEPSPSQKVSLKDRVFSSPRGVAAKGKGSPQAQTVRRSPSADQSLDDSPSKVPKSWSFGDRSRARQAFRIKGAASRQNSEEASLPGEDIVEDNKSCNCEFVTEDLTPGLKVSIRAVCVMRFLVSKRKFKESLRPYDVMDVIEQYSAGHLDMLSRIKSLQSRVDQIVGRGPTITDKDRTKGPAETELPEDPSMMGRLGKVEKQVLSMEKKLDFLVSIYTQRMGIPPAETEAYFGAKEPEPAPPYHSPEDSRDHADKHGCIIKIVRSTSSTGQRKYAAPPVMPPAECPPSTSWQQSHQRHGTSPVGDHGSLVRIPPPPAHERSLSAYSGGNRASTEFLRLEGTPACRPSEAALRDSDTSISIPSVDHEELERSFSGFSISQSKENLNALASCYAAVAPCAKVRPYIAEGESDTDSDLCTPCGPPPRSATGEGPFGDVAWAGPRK
Among all 2,400 compounds or so, about 180 (7.5%) were called active. The sample as a whole holds a higher share of actives than the screen did.
I'd appreciate it if you could supply activity change vs negative control values for the items below.

Compound: CCc1ccc(C(C)NC(=O)c2ccc(F)cc2)cc1 (stereo not given)
Assay value: 43.4% (inactive)
//
Compound: CCNC(=S)Nc1nc2c(cc1C(=O)OCC)CCCC2
Assay value: 29.4% (inactive)
//
Compound: O=C(CN1CCCCCCC1)Nc1cccc(Cl)c1Cl
Assay value: -6.4% (active)
//
Compound: O=C(COc1ccc2ccccc2c1)NNC(=O)C(=O)Nc1ccccc1
Assay value: 61.8% (inactive)
//
Compound: CC(CCc1ccccc1)NC(=S)NC(=O)c1ccco1 (stereo not given)
Assay value: 43% (inactive)
//
Compound: COc1ccc(-c2csc(NC(=S)NC(=O)c3ccco3)n2)cc1
Assay value: 21.1% (inactive)
//
Compound: COC(=O)c1sc(NC(=S)NC(=O)c2ccccc2C)nc1C
Assay value: 41% (inactive)
//
Compound: O=C(CSc1cn(CC(=O)N2CCCC2)c2ccccc12)NCC1CCCO1 (stereo not given)
Assay value: -4.5% (active)
//
Compound: COc1ccc(C(=O)CC(=O)C(=O)Nc2ccc(C)cc2Cl)cc1
Assay value: 39.7% (inactive)
//
Compound: C=CCn1c(SCC(=O)NCC2CCCO2)nnc1-c1ccccc1 (stereo not given)
Assay value: 8.9% (inactive)

Required: activity change vs negative control, one value per compound below.
1. Cc1sc2ncnc(SCC(=O)c3ccc(O)cc3O)c2c1C
2. S=c1nc(C2CC2)[nH]c2ccccc12
3. Cc1ccc(Cc2c[nH]c(=S)s2)cc1
4. CN(C)CCCN=C(NO)c1ccc(Cl)cc1Cl
5. CCOC(=O)c1sc(NC(=S)NC(=O)c2ccccc2)nc1C
6. CC(=O)Nc1ccccc1C(=O)C(=O)Nc1ccccc1
7. O=C(CN1CCCCCC1)Nc1ccc(Oc2ccccc2)cc1
8. N#C/C(=N/Nc1ccc([N+](=O)[O-])cc1)C(=N)N1CCCCC1

Reply text:
1: 24.3% (inactive); 2: 58.2% (inactive); 3: 76.4% (inactive); 4: 6.6% (inactive); 5: 20.3% (inactive); 6: -2% (active); 7: 3.4% (inactive); 8: 17% (inactive)

Required: activity change vs negative control, one value per compound below.
1. CCOC(=O)C1=C(c2ccccc2)NC(=O)NC1c1ccc(O)c(Cl)c1 (stereo not given)
2. O=C(CNCC1CCCO1)N1CCCCCC1 (stereo not given)

Reply text:
1. 23.1% (inactive)
2. 8.2% (inactive)

Required: activity change vs negative control, one value per compound below.
1. CCOC(=O)C1=NN(C(=O)c2ccc(C)cc2)C(O)(c2ccc(Cl)cc2)C1 (stereo not given)
2. CC(C)(C)NC(=O)C(=O)NNC(=O)c1cccc(Br)c1
3. CNC(=S)Nc1sc2c(c1C(=O)OC)CCC2
4. Cc1cc(C)c(C(=O)c2ccc(C(=O)N3CCCCC3)cc2)c(C)c1
5. Cn1nc(C(F)(F)F)c(-c2ccc(Br)cc2)c1NC(=O)c1cccnc1

Reply text:
["110% (inactive)", "40% (inactive)", "31.9% (inactive)", "32.9% (inactive)", "-6.8% (active)"]

###

I'd appreciate it if you could supply activity change vs negative control values for the items below.
target: Potassium voltage-gated channel subfamily KQT member 2 (Rattus norvegicus) (UniProt O88943); test: KCNQ2 blockade in CHO cells – cell-based, FluxOR thallium flux, counter-screen for hERG block protector project, confirmation (AID 1946); settings: FluxOR thallium flux fluorescence, at 10 µM, stronger effect = lower value, zero marks the 3-SD hit cutoff
The whole screen tested about 2,400 compounds, of which about 180 (7.5%) were called active. This excerpt belongs to a sample that is enriched for actives.
Answers are plain numbers, in %.

Below are worked cases with known answers.
Molecule: Cc1cccc(C(=O)NC(=S)NNC(=O)c2ccc(Cl)cc2)c1
Unit of measurement: %
activity change vs negative control: -7.1
//
Molecule: CS(=O)(=O)N(CCc1ccccc1)CC(=O)N1CCN(c2ccc(F)cc2)CC1
Unit of measurement: %
activity change vs negative control: 1.7
//
Molecule: Cc1ccc(C(=O)CC(=O)c2cccc(F)c2)c(O)c1
Unit of measurement: %
activity change vs negative control: 7.2
//
Molecule: CN(Cc1ccccc1)C(=S)NC(=O)c1cccs1
Unit of measurement: %
activity change vs negative control: 31.2
//
Molecule: CCOc1ccc(N(CC)C(=O)COc2cc(=O)n(C)c3ccccc23)cc1
Unit of measurement: %
activity change vs negative control: -3.3
//
Molecule: c1ccc(-c2ccnc3nc(N4CCN(c5ccccc5)CC4)nn23)cc1
Unit of measurement: %
activity change vs negative control: -4.9

Required: activity change vs negative control, one value per molecule below.
1. O=C(c1csc(Nc2ccccc2Cl)n1)N1CCCC1
2. O=C(c1ccc(Cl)c(S(=O)(=O)N2CCCC2)c1)N1CCN(c2ccccc2F)CC1
3. Cc1ccc(/C=C(\NC(=O)c2ccccc2)C(=O)N2CCCCC2)cc1
4. O=C(O)Cn1cc(CN2CCOCC2)c2ccccc21

Reply text:
1: 0; 2: 14.8; 3: -1.3; 4: 2.7

Required: activity change vs negative control, one value per molecule below.
1. Cc1ccc(C(=O)NNC(=S)NC(=O)c2ccc(Cl)cc2)cc1
2. Cc1cccc(C(=O)NC(=S)N2CCc3ccccc3C2)c1
3. Cc1cccc(C(=O)NC(=S)NNC(=O)COc2c(C)cccc2C)c1

Reply text:
1: 0.8; 2: 50.3; 3: -13.3

Required: activity change vs negative control, one value per molecule below.
1. C/C(=N\Nc1nc2ccccc2nc1C)c1ccccc1O
2. c1ccc2c(c1)c1ccccc1n1c(-c3ccc4c(c3)OCO4)nnc21

Reply text:
[35.1, 11.9]

Required: activity change vs negative control, one value per molecule below.
1. CC(=O)c1ccc(N2CCN(C(=O)Cc3ccccc3)CC2)c(F)c1
2. Cc1ccc(NC(=S)NC(=O)c2ccc(-c3ccccc3)cc2)cc1
3. O=C(NC(=S)Nc1cc(C(F)(F)F)ccc1N1CCOCC1)c1ccco1
4. S=C(NCCc1ccccc1)NCCN1CCOCC1
5. CC1CCCCC1NC(=S)NC(=O)c1cccs1 (centres undefined)
6. CCC1(c2ccc(Cl)cc2)NC(=S)N(c2ccc(C)c(C)c2)N1 (centres undefined)
7. O=C(CCc1ccccc1)NC(=S)Nc1cc(C(F)(F)F)ccc1N1CCOCC1
8. CCOC(=O)c1c(O)c2ccccc2n(C)c1=O

Reply text:
[-0.2, 10.9, 11.7, 11.5, 49.2, 124, -15.9, 17.5]

Inquiry: Look at this molecule and give its reported activity change vs negative control. Cc1cccc(C(=O)NC(=S)N(C)C2CCCCC2)c1
Reply text: 46.3

###

target: Potassium voltage-gated channel subfamily KQT member 2 (Rattus norvegicus) (UniProt O88943); assay: KCNQ2 blockade in CHO cells – cell-based, FluxOR thallium flux, counter-screen for hERG block protector project, confirmation (AID 1946); conditions: FluxOR thallium flux fluorescence, at 10 µM, zero marks the 3-SD hit cutoff
Out of some 2,400 compounds screened, about 180 (7.5%) were called active.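 How the source made its calls: active means readout below zero, meaning a drop past 3 SD under the dofetilide-free negative control mean; inactive means the rest.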 For the sample, actives were picked, then their nearest neighbours and some compounds at random.
Form entry, call: pick from True (active), False (inactive)

Molecule: S=c1[nH]cc(Cc2ccccc2)s1
Assigned label: False

Inquiry: Called result for O=S(=O)(c1ccc(F)cc1)N1CCN(c2ccc(F)cc2)CC1
Reply text: False

Inquiry: Called result for CC(C)(C)C1(O)CC(C(F)(F)F)=NN1C(=O)Cc1ccc([N+](=O)[O-])cc1 (stereo unspecified)
Reply text: False

Inquiry: Called result for COc1cc(C2C(C#N)=C(N)Oc3c2ccc2ccccc32)ccc1OCC(=O)Nc1ccc(C)cc1 (stereo unspecified)
Reply text: True

Inquiry: Called result for O=C1CCN(S(=O)(=O)c2ccc(Cl)cc2)CCN1
Reply text: True

Inquiry: Called result for CCOc1ccc(/C=C2/SC(=O)NC2=S)cc1
Reply text: False

Inquiry: Called result for c1ccc(Cn2ncc3c(N4CCN(C(c5ccccc5)c5ccccc5)CC4)ncnc32)cc1
Reply text: True

Inquiry: Called result for C/C(=N/NC(=O)c1cc2ccccc2cc1O)c1ccco1
Reply text: False

###

target: Potassium voltage-gated channel subfamily KQT member 2 (Rattus norvegicus) (UniProt O88943); test: KCNQ2 blockade in CHO cells – cell-based, FluxOR thallium flux, counter-screen for hERG block protector project, confirmation (AID 1946); conditions: FluxOR thallium flux fluorescence, at 10 µM, stronger effect = lower value, zero marks the 3-SD hit cutoff
Out of some 2,400 compounds screened, about 180 (7.5%) were called active. The entries come from a sample that favours actives as a whole.
Quantity: activity change vs negative control (%)
Numbers only, in %.

Required: activity change vs negative control, one value per compound below.
1. Cc1onc(-c2ccccc2)c1C(=O)NC(=S)Nc1sc2c(c1C#N)CCCC2
2. CCOC(=O)c1ccc(NC(=O)Cn2nnc(-c3ccccc3)n2)cc1
3. COc1ccccc1NC(=O)C1CCCN1C(=O)NCc1ccccc1 (stereo unspecified)
4. CCCn1c(=S)[nH]c2sc3c(c2c1=O)CCCC3
5. COc1ccc(S(=O)(=O)Nc2cccnc2)cc1
6. CCOC(=O)c1nnn(CC(=O)Nc2cccc(F)c2)c1C(=O)OCC

Reply text:
10.5
-3.4
-1.2
95
-2.7
14.1

Required: activity change vs negative control, one value per compound below.
1. CC1CCN(C(=S)NC(=O)c2cccc([N+](=O)[O-])c2)CC1
2. CC(C)N1CC(C(=O)Nc2ccc(Cl)c(Cl)c2)CC1=O (stereo unspecified)
3. CCCCOc1ccc(-c2c(C#N)c(N)[nH]c(=S)c2C#N)cc1
4. O=C(NCc1cccnc1)c1ccc(NS(=O)(=O)c2ccc(F)cc2)cc1
5. OC(CNCC(c1ccc(Cl)cc1Cl)c1c[nH]c2ccccc12)c1ccccc1 (stereo unspecified)
6. CCOC(=O)/C(C)=N/NC(=O)c1ccc([N+](=O)[O-])cc1

Reply text:
1: 37.1; 2: -0.8; 3: 21.3; 4: 17; 5: -12; 6: 40.5
